Listed below: 90 nM Ag Bound (RU) values for each entry.
- Tested on: T1, full-length PcrV.6xhis (Pseudomonas aeruginosa)
- T1 construct: Recombinant full-length V-tip protein of the type 3 secretion system, His-tagged; also called full-length PcrV with a C-terminal hexahistidine tag
- Assay explanation: SPR (Biacore T200), mAb captured via anti-human Fc, PcrV injected, 37 C
Measured attribute: 90 nM Ag Bound (RU)

>>> measured_value("REGN3514 (antibody, V domains shown, also called Control I; Control I-REGN3514) VH: EMQLLESGGGLVQPGGSLRLSCAASGFTFSSYAMNWVRQAPGEGLEWVSAITISGITAYYTDSVKGRFTISRDNSKNTLYLQMNSLRAGDTAVYYCAKEEFLPGTHYYYGMDVWGQGTTVTVSS VL: AIQMTQSPSSLSASVGDRVTITCRASQGIRNDLGWYQQKPGKAPKLVIYSASTLQSGVPSRFSGSGSGTDFTLSISSLQPDDFATYYCLQDYNYPWTFGQGTKVEIKR")
141
>>> measured_value("H1H29329P (antibody, V domains shown) VH: EVQLVESGGGLVQPGGSLRLSCAASGFTFSDHEMNWVRQAPGKGLEWISYIGSGVVTMYYADSVRGRFTISRDNAKKTLYLQMNSLRAEDTAVYYCARDRGYYFGSEAFHYWGQGTLVTVSS VL: DIQMTQSPSTLSASVGDRVTITCRASQSISNWLAWYQQKPGKAPKLLIYKSSSLESGVPSRFSGSGSGTEFTLTISSLQPDDFATYYCQQYKSYSLTFGGGTKVEIKR")
59.6
>>> measured_value("H1H29336P (antibody, V domains shown) VH: EVQLVESGGGLVQPGGSLRLSCAASGFTFSSYAMTWVRQAPGKGLEWVSSIRGSGYSSDYADSVKGRFTISRDNSENTVYLQMNRLRAEDTAVYYCAKERSVTAYYYYGMDVWGQGTTVTVSS VL: DIQLTQSPSFLSASVGDRVTITCWASQDISSFLTWYQQKPGIAPKLLIYTASTLQSGVPSRFSGSGSGTEFTLTISSLQPEDFATYYCQQLKSYPLTFGGGTKVEIKR")
80.7
